biological target: human IL-13 (source not stated for the assay) (human, UniProt P35225 35-146, limits assumed); experiment: cell-based or functional assay
Sequence (P35225 35-146 limits assumed): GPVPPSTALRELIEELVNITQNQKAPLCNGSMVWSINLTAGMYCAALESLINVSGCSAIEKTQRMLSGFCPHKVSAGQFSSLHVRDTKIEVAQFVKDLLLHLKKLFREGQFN
OBSERVABLE: IC50, IL-13 induced eotaxin release, n = 3 (pM)
Reply numerically in pM, unit not repeated.

Known IC50, IL-13 induced eotaxin release, n = 3 results, listed for orientation:
[[record]]
binder = "mAb 157 (antibody, V domains shown) VH: EVQLVESGGGLVKPGGSLRLSCAASGFTFSSYSMNWVRQAPGKGLEWVSYISTSYNYIYYADSVKGRFTISRDNAKNSLYLQMNSLRAEDTAVYYCARDQVGATLDAFDIWGQGTMVTVSS VL: DIQMTQSPSSLSASVGDRVTITCRASQGIGDDLGWYQQKPGKAPKRLIYAASSLQSGVPSRFSGSGSGTEFTLTISSLQPEDFATYYCLQHNSYPFTFGPGTRVDIK"
unit_of_measure = "pM"
observed_value = 306

[[record]]
binder = "mAb 11.18 (antibody, V domains shown) VH: QVQLVESGGGVVQPGRSLRLSCVASGFTFSSYDMHWVRQAPGKGLEWVAVIWYDGSNKYYADSVQGRFTISRDNSKNTLYLQMNSLRAEDTAVYYCTSEDSSGWYDGWFDPWGQGTLVTVSS VL: DIQMTQSPSSLSASVGDRVTITCRASQGISNYLAWYQQKPGKVPKVLIYAASTLQSGVPSRFSGSGSGTDFTLTISSLQPEDVATYYCQKYNSAPFTFGPGTKVDIK"
unit_of_measure = "pM"
observed_value = 217

[[record]]
binder = "mAb 264 (antibody, V domains shown) VH: EVQLVESGGGLVKPGGSLRLSCAASGFTFSSYSMNWVRQAPGKGLEWVSYISTSNSYIYYADSVKGRFTISRDNAKNSLYLQMNSLRAEDTAVYYCARDQVGATLDAFDIWGQGTMVTVSS VL: DIQMTQSPSSLSASVGDRVTFTCRASQDITDDLGWYQQKPGKAPKRLIYAASSLQSGVPSRFSGSGSGTEFTLTISSLQPEDFATYYCLQHNSYPFTFGPGTKVDIR"
unit_of_measure = "pM"
observed_value = 284


State its IC50, IL-13 induced eotaxin release, n = 3 for this binder: mAb 693 (antibody, V domains shown, also called sc693) VH: QVQLQESGPGLVKPSETLSLTCSVSGGSISSYYWSWIRQPAGKGLEWIGRIYMTGRTNYNSSLKSRVTMSIDTSKNQLSLKLSFMTAADTAVYYCARESGSSYSYDYWGQGTLVTVSS VL: SYVLTQPPSVSVAPGQTARITCGGNNIGSKGVHWYQQKPGQAPVLVVYDDSDRPSGIPERFSGSNSGNTATLTISRVEAGDEADYYCQVWVSSSDHHVVFGGGTKLTVV 53

State its IC50, IL-13 induced eotaxin release, n = 3 for this binder: mAb 623 (antibody, V domains shown, also called sc623) VH: EVQLVESGGGLVKPGGSLRLSCAASGFTFSNAWMSWVRQAPGKGLEWVGRIRSEIDGGTTNYAAPVKGRFTISRDDSKNTLYLQMNSLKTEDTAVYYCATDQVGAYYGDYYGMDVWGQGTTVTVSS VL: SYELTQPPSVSVSPGQTARITCSGDALPEKYAYWYQQKSGQAPVLVIYEDSKRPSGIPERFSGSSSGTMATLTISGAQVEDEADYYCHSTDSSGNHGVFGGGTKLTVLG 35
